# ASSAYED_SYSTEM: GCN2 (Homo sapiens (Human))
# Sequence (Q9P2K8 whole entry): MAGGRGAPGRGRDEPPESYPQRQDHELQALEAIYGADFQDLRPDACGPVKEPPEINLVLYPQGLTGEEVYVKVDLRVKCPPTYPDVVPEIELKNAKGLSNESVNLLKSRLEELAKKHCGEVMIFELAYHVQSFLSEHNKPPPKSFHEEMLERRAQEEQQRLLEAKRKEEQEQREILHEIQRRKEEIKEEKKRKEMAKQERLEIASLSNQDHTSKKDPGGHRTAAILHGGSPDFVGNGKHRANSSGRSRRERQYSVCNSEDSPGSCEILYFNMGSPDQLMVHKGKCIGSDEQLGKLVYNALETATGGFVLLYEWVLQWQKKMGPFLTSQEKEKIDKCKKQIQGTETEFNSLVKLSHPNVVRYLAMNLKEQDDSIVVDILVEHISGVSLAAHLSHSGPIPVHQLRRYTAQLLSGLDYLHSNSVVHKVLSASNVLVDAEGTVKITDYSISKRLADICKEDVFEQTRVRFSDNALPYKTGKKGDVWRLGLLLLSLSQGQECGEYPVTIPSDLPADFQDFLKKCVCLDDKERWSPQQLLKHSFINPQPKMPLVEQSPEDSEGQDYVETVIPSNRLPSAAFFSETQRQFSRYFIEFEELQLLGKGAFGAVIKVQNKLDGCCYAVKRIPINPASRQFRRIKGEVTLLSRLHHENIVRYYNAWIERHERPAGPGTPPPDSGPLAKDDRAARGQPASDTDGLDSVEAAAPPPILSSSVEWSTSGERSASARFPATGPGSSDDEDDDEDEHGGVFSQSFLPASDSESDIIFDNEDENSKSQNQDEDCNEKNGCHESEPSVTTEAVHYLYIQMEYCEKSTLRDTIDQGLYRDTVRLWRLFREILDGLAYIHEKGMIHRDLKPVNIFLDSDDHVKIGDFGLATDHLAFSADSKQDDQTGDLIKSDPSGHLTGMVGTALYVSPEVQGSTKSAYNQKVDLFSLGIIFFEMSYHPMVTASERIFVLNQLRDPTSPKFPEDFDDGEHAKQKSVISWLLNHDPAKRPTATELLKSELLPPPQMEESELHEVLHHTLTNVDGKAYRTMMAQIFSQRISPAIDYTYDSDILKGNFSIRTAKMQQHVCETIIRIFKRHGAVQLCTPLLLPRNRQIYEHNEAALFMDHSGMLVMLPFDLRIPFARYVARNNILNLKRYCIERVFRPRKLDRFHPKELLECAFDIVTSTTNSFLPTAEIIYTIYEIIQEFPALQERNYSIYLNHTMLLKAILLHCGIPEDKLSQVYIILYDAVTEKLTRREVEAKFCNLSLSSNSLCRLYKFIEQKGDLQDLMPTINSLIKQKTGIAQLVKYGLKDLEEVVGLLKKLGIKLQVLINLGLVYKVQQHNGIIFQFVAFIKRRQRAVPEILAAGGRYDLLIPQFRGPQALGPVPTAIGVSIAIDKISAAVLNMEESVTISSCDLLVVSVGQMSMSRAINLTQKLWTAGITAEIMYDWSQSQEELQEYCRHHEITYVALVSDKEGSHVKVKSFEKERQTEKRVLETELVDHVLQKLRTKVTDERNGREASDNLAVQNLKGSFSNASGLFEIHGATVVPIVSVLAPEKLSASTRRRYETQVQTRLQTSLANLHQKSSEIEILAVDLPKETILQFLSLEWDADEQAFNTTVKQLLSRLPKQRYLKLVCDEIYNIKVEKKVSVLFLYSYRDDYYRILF
# ASSAY_NAME: TR-FRET biochemical assay for inhibition of GCN2
# SETTINGS: GCN2 2 nM, 100 nM GFP-eIF2a, 150 μM ATP, TR-FRET
pIC50: −log10 of the molar value.
Quick reference for pIC50 among some molecules

SMILES_NOTATION	pIC50
COc1ncc(F)cc1S(=O)(=O)Nc1ccc(F)c(-c2ccc3c(-c4nnc[nH]4)ncn3c2)c1F	> 7.30
COc1ncc(Cl)cc1S(=O)(=O)Nc1ccc(F)c(-c2ccc3c(-n4ccnn4)ncn3c2)c1F	> 7.30
Cc1ncc(Cl)cc1S(=O)(=O)Nc1ccc(F)c(-c2ccc3c(-c4ncc[nH]4)ncn3n2)c1F	> 7.30
COc1ncc(F)cc1S(=O)(=O)Nc1ccc(F)c(-c2cn3cnc(-c4nc(Cc5ccccc5)c[nH]4)c3cn2)c1F	> 7.30
COc1ncc(Cl)cc1S(=O)(=O)Nc1ccc(F)c(-c2ccc3c(-c4ncc(CO)[nH]4)ncn3c2)c1F	> 7.30
COc1ncc(F)cc1S(=O)(=O)Nc1ccc(F)c(-c2cn3cnc(-c4nc5ccccc5[nH]4)c3cn2)c1F	> 7.30
COc1ncc(F)cc1S(=O)(=O)Nc1ccc(F)c(-c2ccc3c(-c4nc5ccc(N6CCN(C)CC6)cc5[nH]4)ncn3c2)c1F	> 7.30
COc1ncc(Cl)cc1S(=O)(=O)Nc1ccc(F)c(-c2cn3cnc(C(=O)NCCN4CCOCC4)c3cn2)c1F	> 7.30
COc1ncc(Cl)cc1S(=O)(=O)Nc1ccc(F)c(-c2cn3cnc(C(=O)NCCO)c3cn2)c1F	> 7.30
COc1ncc(Cl)cc1S(=O)(=O)Nc1ccc(F)c(-c2cn3cnc(-c4nc5ccccc5[nH]4)c3cn2)c1F	> 7.30
COc1ncc(Cl)cc1S(=O)(=O)Nc1ccc(F)c(-c2ccn3c(-c4ncc[nH]4)ncc3c2F)c1F	> 7.30
COc1ncc(Cl)cc1S(=O)(=O)Nc1ccc(F)c(-c2ccc3c(-c4ncc[nH]4)ncn3n2)c1F	> 7.30
CNC(=O)c1ncn2cc(-c3c(F)ccc(NS(=O)(=O)c4cc(Cl)cnc4OC)c3Cl)ccc12	> 7.30
Cc1ncc(Cl)cc1S(=O)(=O)Nc1ccc(F)c(-c2ccc3c(-n4cnnn4)ncn3c2)c1F	> 7.30

All values here come from patent US20240083897A1.
